experiment: Components of the Cytosolic LPS Sensing Pathway: Gene Identification via Genome-wide siRNA Screen; conditions: RAW264.7 macrophages, IL-1a HTRF, actives lie on both sides, screened at 100 nM (by protocol), cells primed 5 h with Pam3CSK4 first;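 note: robust z of the log signal after scaling to non-targeting control siRNA wells of the plate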
The campaign covered roughly 53,000 sequences. About 3,700 (7%) were called active. Many of the other results were omitted from the sample, so actives are more common in it than they were.
quantity-kind: z-score
Answers are plain numbers.

macromolecule_sequence="GGACCUAAGGGAUCUAUUGTT against Col5a3" test_result=0.000962
macromolecule_sequence="CCUUUUGUUUUACCUACUCTT against Tbx22" test_result=2.32
macromolecule_sequence="GGACAGGUACUUUUCCCUGTT against Gnpda2" test_result=-1.19
macromolecule_sequence="GCCUAAAAAAUCUCUGUGATT against Zswim3" test_result=-2.77
macromolecule_sequence="GGUUGAUCGUGUCAUGUAGTT against Poc1b" test_result=0.0595
macromolecule_sequence="GGAAUGCAAUGACAAAUGATT against Kank3" test_result=0.198
macromolecule_sequence="GGAUCAAGCCGAACAGUUCTT against Pigk" test_result=2.34
macromolecule_sequence="GGAUUUCGAGAUAACUAUGTT against Tbr1" test_result=-0.0186

Items follow; give z-score for each.
1. GCCCUGUUUACACCUCUGATT against Sec23a
2. CCAGAAUGUAAAACAACCGTT against Zfp365
3. GGAGGAUUCAUGCUUUGUUTT against Morc2b
4. GUGUACGUCUGUUAACACATT against Dad1

Result:
[-1.38, 0.588, 0.238, -2.1]

###

assay: Components of the Cytosolic LPS Sensing Pathway: Gene Identification via Genome-wide siRNA Screen; settings: RAW264.7 macrophages, IL-1a HTRF, actives lie on both sides, screened at 100 nM (by protocol), cells primed 5 h with Pam3CSK4 first;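 note: robust z of the log signal after scaling to non-targeting control siRNA wells of the plate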
The whole screen tested about 53,000 sequences, of which about 3,700 (7%) were called active.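 Rule for the calls: active = gene knockdowns whose robust z-score for IL-1 alpha signal is at least 2 or at most -2, so actives lie on both sides; inactive = the rest.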 The entries come from a sample that favours actives as a whole.
// allowed return values: active, inactive

Worked examples follow.
macromolecule_sequence="GGCAUCUUAUUUCUUGUUATT against Tbkbp1" qualitative_label=inactive
macromolecule_sequence="GGACUACAUGGAUGCCAUGTT against Prkrip1" qualitative_label=inactive

Query: Field: outcome | Entry: GGAAAACCAGCUAAUUAUCTT against Ptger3
Result: inactive

Query: Field: outcome | Entry: GGGUCUGCCGUCAUCCAUATT against Acp6
Result: inactive

Query: Field: outcome | Entry: CCAACUGUUGGUGAUGAUGTT against Cpsf6
Result: active

###

assay: Components of the Cytosolic LPS Sensing Pathway: Gene Identification via Genome-wide siRNA Screen; conditions: RAW264.7 macrophages, IL-1a HTRF, actives lie on both sides, screened at 100 nM (by protocol), cells primed 5 h with Pam3CSK4 first;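 note: robust z of the log signal after scaling to non-targeting control siRNA wells of the plate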
In all, about 53,000 sequences went through this assay and about 3,700 (7%) were called active. Only a selection was taken, and actives are over-represented in it overall.
# note: boundary value 0.07 maps to no (0); z-score below it maps to yes (1)

macromolecule_sequence="CGAUGUACUCCAUGUUGGGTT against Bpifb6" qualitative_label="no (0)"

Query: Is z-score strictly under 0.07 for the entry GGUUCUAGGACCUAUUUUGTT against Cep57 ?
Result: no (0)

Query: Is z-score strictly under 0.07 for the entry GCAGAGCGGGAUUUCAUUCTT against Sh3glb2 ?
Result: yes (1)

Query: Is z-score strictly under 0.07 for the entry GGAGAGACUCAGGAGUUUUTT against Rnd2 ?
Result: no (0)
